Biological target: human P2X2/3 receptor (Homo sapiens, UniProt P56373+Q9UBL9)
Construct: expressed in transfected cells; host or cells: CHO-K1
Assay: P2X3/P2X2/3 FLIPR (Fluorometric Imaging Plate Reader) Assay, P2X2/3
Type: cell-based
Settings: CHO-K1 cells transfected with human P2X2/3; agonist α,β-meATP 5 μM; Table 1; read-out: P2X2/3 pKi (converted)
Exercise: state measured Ki for each of the compounds provided.
Write the figure, then the unit, nothing else.

# Compound, Ki
data = [
    ("Cc1ccc(-c2cc(C(=O)NC3CC3)cc(-n3ncnc3CC(C)C)c2)nc1", "182 nM"),
    ("Cc1ccc(-c2cc(C(=O)NC(C)c3cnccn3)cc(-n3ncnc3C(C)C)c2)nc1 (centres unmarked)", "42.7 nM"),
    ("CCCc1ncnn1-c1cc(C(=O)N[C@@H](C)CO)cc(-c2ccc(Cl)cn2)c1", "4900 nM"),
    ("Cc1ccc(-c2cc(-n3ncnc3C(F)(F)F)cc(C(=O)N[C@@H](C)CO)c2F)nc1", "12 nM"),
    ("Cc1ccc(-c2cc(C(=O)NC(C)c3cnccn3)cc(-n3ncnc3C(C)N(C)C)c2)cc1 (centres unmarked)", "51.3 nM"),
    ("COCC(C)NC(=O)c1cc(-c2ccc(C)cc2)cc(-n2nncc2C)c1 (centres unmarked)", "2820 nM"),
    ("CCCc1ncnn1-c1cc(C(=O)NC2CC2)cc(-c2ccc(C)cn2)c1", "1580 nM"),
    ("Cc1ccc(-c2cc(-n3ncnc3C(C)C)cc(C(=O)N[C@@H](C)CO)c2F)nc1", "1620 nM"),
    ("Cc1ccc(-c2cc(C(=O)NCc3cnc(C)cn3)cc(-n3ncnc3C(C)N(C)C)c2)cc1 (centres unmarked)", "43.7 nM"),
    ("CCc1ncnn1-c1cc(C(=O)NC2CC2)cc(-c2ccc(Cl)cn2)c1", "4270 nM"),
]

List Ki for every entry below, keeping the order given.
1. Cc1ccc(-c2cc(C(=O)NCc3ncc(C)cn3)cc(-n3ncnc3C(F)(F)F)c2)nc1
2. C[C@@H](CO)NC(=O)c1cc(-c2ccc(Cl)cn2)cc(-n2ncnc2CF)c1
3. Cc1cnc(CNC(=O)c2cc(-c3ccc(Cl)cn3)cc(-n3ncnc3C(C)(C)C)c2)cn1
4. Cc1ccc(-c2cc(C(=O)NC(C)c3cnccn3)cc(-n3c(C)nnc3C(C)C)c2)cc1 (centres unmarked)
5. Cc1ccc(-c2cc(C(=O)NC(C)CO)cc(-n3nncc3C(C)C)c2)cc1 (centres unmarked)
6. Cc1ccc(-c2cc(-n3ncnc3C(F)(F)F)cc(C(=O)NCc3cnc(C)cn3)c2F)nc1

Completion:
209 nM
10000 nM
427 nM
398 nM
257 nM
95.5 nM

Prompt: Query for human P2X2/3 receptor (Homo sapiens, UniProt P56373+Q9UBL9): what Ki does the record show for COCCc1ncnn1-c1cc(C(=O)NCc2cnc(C)cn2)cc(-c2ccc(C)cn2)c1 ?
Completion: 2450 nM

---

Biological target: human P2X2/3 receptor (Homo sapiens, UniProt P56373+Q9UBL9)
Construct: expressed in transfected cells; host or cells: CHO-K1
Test: P2X3/P2X2/3 FLIPR (Fluorometric Imaging Plate Reader) Assay, P2X2/3
Format: cell-based
Conditions: CHO-K1 cells transfected with human P2X2/3; agonist α,β-meATP 5 μM; Table 1; read-out: P2X2/3 pKi (converted)
Measurement Type: log10(Ki) (log10 of the value in nM)
The base-10 logarithm of Ki, taken with Ki in nM, is what appears here.

Solved cases (7 shown):
# Compound, Target Of Assay, log10(Ki)
measured = [
    ("Cc1ccc(-c2cc(C(=O)NC(C)c3cnccn3)cc(-n3ncnc3C(C)C)c2)cc1 (centres unmarked)", "human P2X2/3 receptor (Homo sapiens, UniProt P56373+Q9UBL9)", 1.38),
    ("Cc1ccc(-c2cc(C(=O)NC(C)c3cnccn3)cc(-n3nncc3C(C)C)c2)cc1 (centres unmarked)", "human P2X2/3 receptor (Homo sapiens, UniProt P56373+Q9UBL9)", 1.50),
    ("Cc1ccc(-c2cc(C(=O)NCc3cnc(C)cn3)cc(-n3ncnc3CC(F)F)c2)nc1", "human P2X2/3 receptor (Homo sapiens, UniProt P56373+Q9UBL9)", 2.03),
    ("Cc1ccc(-c2cc(C(=O)NC3CC3)cc(-n3ncnc3C(F)(F)F)c2)nc1", "human P2X2/3 receptor (Homo sapiens, UniProt P56373+Q9UBL9)", 3.10),
    ("COC(C)c1ncnn1-c1cc(C(=O)NC(C)c2cnccn2)cc(-c2ccc(C)cn2)c1 (centres unmarked)", "human P2X2/3 receptor (Homo sapiens, UniProt P56373+Q9UBL9)", 2.12),
    ("Cc1ccc(-c2cc(C(=O)N[C@@H](C)CO)cc(-n3ncnc3C3CC3)c2)nc1", "human P2X2/3 receptor (Homo sapiens, UniProt P56373+Q9UBL9)", 3.79),
    ("Cc1ccc(-c2cc(C(=O)NCc3cnc(C)cn3)cc(-n3ncnc3C(C)(C)C)c2)nc1", "human P2X2/3 receptor (Homo sapiens, UniProt P56373+Q9UBL9)", 3.13),
]

Prompt: What log10(Ki) value was documented for this compound, CCc1ncnn1-c1cc(C(=O)NCc2cnc(C)cn2)cc(-c2ccc(C)cn2)c1 ?
Completion: 1.90

---

Target: rat P2X3 receptor (Rattus norvegicus)
Construct: expressed in transfected cells; host or cells: CHO-K1
Sequence (P49654 whole entry): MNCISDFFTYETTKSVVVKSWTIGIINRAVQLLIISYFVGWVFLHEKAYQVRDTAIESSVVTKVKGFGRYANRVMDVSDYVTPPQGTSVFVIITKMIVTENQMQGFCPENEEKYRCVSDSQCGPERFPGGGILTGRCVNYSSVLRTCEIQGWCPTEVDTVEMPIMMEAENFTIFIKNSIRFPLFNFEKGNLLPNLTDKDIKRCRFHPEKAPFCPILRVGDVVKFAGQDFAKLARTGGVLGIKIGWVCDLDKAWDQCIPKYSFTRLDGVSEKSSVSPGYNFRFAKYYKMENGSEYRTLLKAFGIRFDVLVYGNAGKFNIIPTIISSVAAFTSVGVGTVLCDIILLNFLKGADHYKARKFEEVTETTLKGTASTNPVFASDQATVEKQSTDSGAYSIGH
Test: P2X3/P2X2/3 FLIPR (Fluorometric Imaging Plate Reader) Assay, P2X3
Format: cell-based
Settings: CHO-K1 cells transfected with rat P2X3; agonist α,β-meATP 1 μM; Table 1; read-out: P2X3 pKi (converted)
Measurement Type: Ki (nM)
Give bare numbers, in nM.

Sample records with Ki:
# Molecule, Measurement Type, Endpoint Result
measured = [
    ("COC[C@@H](C)NC(=O)c1cc(-c2ccc(C)cc2)cc(-n2nncc2C(C)C)c1", "Ki", 7.41),
    ("Cc1ccc(-c2cc(C(=O)NCc3cnc(C)cn3)cc(-n3ncnc3CC(C)(C)O)c2)nc1", "Ki", 123),
    ("CCn1nncc1-c1cc(C(=O)NC(C)c2cnccn2)cc(-c2ccc(C)cc2)c1 (stereo not shown)", "Ki", 9.77),
]

Prompt: Given the molecule Cc1ccc(-c2cc(C(=O)NC3CC3)cc(-n3ncnc3C(C)(F)F)c2)nc1 , what is its reported Ki?
Completion: 9.12

---

Biological target: human P2X2/3 receptor (Homo sapiens, UniProt P56373+Q9UBL9)
Construct: expressed in transfected cells; host or cells: CHO-K1
Assay: P2X3/P2X2/3 FLIPR (Fluorometric Imaging Plate Reader) Assay, P2X2/3
Format: cell-based
Details: CHO-K1 cells transfected with human P2X2/3; agonist α,β-meATP 5 μM; Table 1; read-out: P2X2/3 pKi (converted)
Give measured Ki for each item. Keep answers brief.
Numbers only, in nM.

# Compound, Measurement Type, Result Units, Endpoint Result
rows = [
    ("COC(C)c1ncnn1-c1cc(C(=O)N[C@@H](C)CO)cc(-c2ccc(C)cc2)c1 (stereo partly shown) [Compound 47]", "Ki", "nM", 2040),
]

Give Ki for each listed item.
1. Cc1ccc(-c2cc(C(=O)N[C@@H](C)CO)cc(-n3ncnc3C)c2)nc1 [Compound 102]
2. Cc1ccc(-c2cc(C(=O)N[C@@H](C)CO)cc(-c3ncnn3C(C)C)c2)cc1 [Compound 54]
3. COC[C@@H](C)NC(=O)c1cc(-c2ccc(C)cc2F)cc(-n2ncnc2C(C)C)c1 [Compound 33]

Completion:
1: 10000; 2: 2450; 3: 1380

---

Molecular target: human P2X2/3 receptor (Homo sapiens, UniProt P56373+Q9UBL9)
Construct: expressed in transfected cells; host or cells: CHO-K1
Assay: P2X3/P2X2/3 FLIPR (Fluorometric Imaging Plate Reader) Assay, P2X2/3
Type: cell-based
Details: CHO-K1 cells transfected with human P2X2/3; agonist α,β-meATP 5 μM; Table 1; read-out: P2X2/3 pKi (converted)
Kindly supply the reported Ki values for the records listed here.
Numbers only, in nM.

Use the examples below as a reference point.
# Compound, Ki (nM)
data = [
    ("Cc1ccc(-c2cc(C(=O)NCc3cnc(C)cn3)cc(-n3ncnc3C(F)(F)F)c2)nc1", 36.3),
    ("Cc1ccc(-c2cc(C(=O)NC(C)c3cnccn3)cc(-n3ncnc3C(C)(C)C)c2)nc1 (stereo not shown)", 117),
    ("COc1ncnn1-c1cc(C(=O)NC(C)c2cnccn2)cc(-c2ccc(Cl)cc2)c1 (stereo not shown)", 537),
]

Prompt: Requested read-out: Ki. Entry: COC(C)c1ncnn1-c1cc(C(=O)NCc2cnc(C)cn2)cc(-c2ccc(C)cc2)c1 (stereo not shown)
Completion: 38

---

Molecular target: human P2X2/3 receptor (Homo sapiens, UniProt P56373+Q9UBL9)
Construct: expressed in transfected cells; host or cells: CHO-K1
Sequence (Q9UBL9 1-471): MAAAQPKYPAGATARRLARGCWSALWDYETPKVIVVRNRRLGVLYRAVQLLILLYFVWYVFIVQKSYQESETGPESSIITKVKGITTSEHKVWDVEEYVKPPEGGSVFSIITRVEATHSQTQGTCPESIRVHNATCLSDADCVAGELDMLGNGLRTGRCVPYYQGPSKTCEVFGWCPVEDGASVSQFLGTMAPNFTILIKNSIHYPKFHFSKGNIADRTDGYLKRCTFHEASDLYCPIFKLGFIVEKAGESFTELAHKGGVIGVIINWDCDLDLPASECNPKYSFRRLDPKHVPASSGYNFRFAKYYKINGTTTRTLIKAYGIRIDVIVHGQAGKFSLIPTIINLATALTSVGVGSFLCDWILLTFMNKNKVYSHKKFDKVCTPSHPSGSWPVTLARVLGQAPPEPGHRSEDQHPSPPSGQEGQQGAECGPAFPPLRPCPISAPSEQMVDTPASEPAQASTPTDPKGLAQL
Sequence (P56373 1-397): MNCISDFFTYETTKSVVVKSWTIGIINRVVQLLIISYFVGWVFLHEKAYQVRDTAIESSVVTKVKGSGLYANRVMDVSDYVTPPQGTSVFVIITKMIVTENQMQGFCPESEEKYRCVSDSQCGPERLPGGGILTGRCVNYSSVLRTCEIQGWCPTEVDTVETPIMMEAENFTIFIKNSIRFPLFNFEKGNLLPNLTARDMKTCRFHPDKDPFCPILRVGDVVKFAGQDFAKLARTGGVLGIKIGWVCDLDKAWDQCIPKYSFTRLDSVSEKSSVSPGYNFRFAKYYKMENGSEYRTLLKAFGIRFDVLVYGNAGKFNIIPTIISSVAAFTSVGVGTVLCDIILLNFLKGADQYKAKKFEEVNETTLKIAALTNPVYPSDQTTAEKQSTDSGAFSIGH
Test: P2X3/P2X2/3 FLIPR (Fluorometric Imaging Plate Reader) Assay, P2X2/3
Format: cell-based
Details: CHO-K1 cells transfected with human P2X2/3; agonist α,β-meATP 5 μM; Table 1; read-out: P2X2/3 pKi (converted)
Consider the following molecules; for each one, report its log10(Ki).
Scale type: logarithmic (base 10). Underlying Ki unit: nM.

These solved cases illustrate the format of a correct answer.
# Molecule, Target Of Assay, Measurement Type, Endpoint Result
records = [
    ("Cc1ccc(-c2cc(C(=O)N[C@@H](C)CO)cc(-n3nc(C)nc3C(C)C)c2)cc1 [Compound 29]", "human P2X2/3 receptor (Homo sapiens, UniProt P56373+Q9UBL9)", "log10(Ki)", 3.56),
    ("Cc1ccc(-c2cc(C(=O)NCc3cnc(C)cn3)cc(-n3ncnc3C(C)N(C)C)c2)nc1 (stereo not shown) [Compound 141]", "human P2X2/3 receptor (Homo sapiens, UniProt P56373+Q9UBL9)", "log10(Ki)", 2.33),
    ("CCCc1ncnn1-c1cc(C(=O)NCc2cnc(C)cn2)cc(-c2ccc(Cl)cn2)c1 [Compound 109]", "human P2X2/3 receptor (Homo sapiens, UniProt P56373+Q9UBL9)", "log10(Ki)", 2.57),
    ("CC(NC(=O)c1cc(-c2ccc(Cl)cn2)cc(-n2ncnc2C(F)(F)F)c1)c1cnccn1 (stereo not shown) [Compound 79]", "human P2X2/3 receptor (Homo sapiens, UniProt P56373+Q9UBL9)", "log10(Ki)", 2.57),
    ("Cc1ccc(-c2cc(C(=O)N[C@@H](C)CO)cc(-n3nncc3C(C)C)c2)cc1 [Compound 8]", "human P2X2/3 receptor (Homo sapiens, UniProt P56373+Q9UBL9)", "log10(Ki)", 2.49),
    ("CCn1cc(-c2cc(C(=O)NC(C)c3cnccn3)cc(-c3ccc(C)cc3)c2)nn1 (stereo not shown) [Compound 41]", "human P2X2/3 receptor (Homo sapiens, UniProt P56373+Q9UBL9)", "log10(Ki)", 3.87),
    ("CCc1ncnn1-c1cc(C(=O)N[C@@H](C)CO)cc(-c2ccc(Cl)cn2)c1 [Compound 107]", "human P2X2/3 receptor (Homo sapiens, UniProt P56373+Q9UBL9)", "log10(Ki)", 4.00),
    ("Cc1cnc(CNC(=O)c2cc(-c3ccc(Cl)cn3)cc(-n3ncnc3C(C)C)c2)cn1 [Compound 121]", "human P2X2/3 receptor (Homo sapiens, UniProt P56373+Q9UBL9)", "log10(Ki)", 2.03),
    ("CCn1cnnc1-c1cc(C(=O)NC(C)c2cnccn2)cc(-c2ccc(C)cc2)c1 (stereo not shown) [Compound 43]", "human P2X2/3 receptor (Homo sapiens, UniProt P56373+Q9UBL9)", "log10(Ki)", 2.91),
    ("Cc1ccc(-c2cc(C(=O)NC(C)c3cnccn3)cc(-n3ncnc3C(F)(F)F)c2)nc1 (stereo not shown) [Compound 98]", "human P2X2/3 receptor (Homo sapiens, UniProt P56373+Q9UBL9)", "log10(Ki)", 1.66),
]

For each of the molecules below, note its log10(Ki).
1. Cc1ccc(-c2cc(C(=O)NCc3ccn(C)c(=O)c3)cc(-n3ncnc3C(C)C)c2)nc1 [Compound 159]
2. Cc1ccc(-c2cc(C(=O)NCc3cnc(C)cn3)cc(-n3ncnc3C(C)(F)F)c2)nc1 [Compound 69]
3. CCn1nncc1-c1cc(C(=O)N[C@H](C)COC)cc(-c2ccc(C)cc2)c1 [Compound 37]
4. Cc1ccc(-c2cc(C(=O)NCc3cnc(C)cn3)cc(-n3ncnc3C3CNC3)c2)nc1 [Compound 151]
5. Cc1ccc(-c2cc(C(=O)N[C@@H](C)CO)cc(-n3ncnc3C(C)N(C)C)c2)cc1 (stereo partly shown) [Compound 105]
6. CC(C)Cc1ncnn1-c1cc(C(=O)NC(C)c2cnccn2)cc(-c2ccc(Cl)cn2)c1 (stereo not shown) [Compound 74]

Completion:
1: 1.42; 2: 1.43; 3: 3.83; 4: 3.86; 5: 2.81; 6: 1.78

Hello, the source for this data is patent US8440708B2, in case you need it.
